# Tested on: Rhizoctonia solani (Rs)
# EXPERIMENTAL_DETAILS: Growth inhibition assay of fungal pathogens, Rs
# Type: cell-based
# MEASUREMENT_CONDITIONS: 48 h, mycelial plugs, growth inhibition at 48 hours vs 2% DMSO control, read-out: Concentration at 90% Inhibition Rs
REPORTED_ENDPOINT: IC90 (µg/mL)
Give bare numbers, in µg/mL.

Please review the entries below; each comes with its answer.
CCc1ccc(F)cc1[C@H](Cn1c(=O)n(C(C)(C)C(=O)NC(C)C)c(=O)c2c(C)c(-n3nccn3)sc21)OCCOC [Compound I-126] ... 2
COc1ccc(F)cc1[C@H](Cn1c(=O)n(C(C)(C)C(=O)N2CCCC2)c(=O)c2c(C)c(-n3nccn3)sc21)OC[C@@H](C)O [Compound I-46] ... 0.4
COc1ccc(F)cc1[C@H](Cn1c(=O)n(C(C)(C)C(N)=O)c(=O)c2c(C)c(-n3nccn3)sc21)OC1CCC(=O)CC1 [Compound I-31] ... 2
COc1ccc(F)cc1[C@H](Cn1c(=O)n(C(C)(C)C(=O)N2CCCC2)c(=O)c2c(C)c(-n3nccn3)sc21)OC(C)C [Compound I-7] ... 0.08
COc1ccc(F)cc1[C@H](Cn1c(=O)n(C(C)(C)C(=O)NC(C)C)c(=O)c2c(C)c(-n3nccn3)sc21)OC[C@H](C)C#N [Compound I-151] ... 0.08
COc1ccc(F)cc1[C@H](Cn1c(=O)n(C(C)(C)C(=O)N2CCCC2)c(=O)c2c(C)c(-n3nccn3)sc21)OCCO [Compound I-44] ... 2

Record IC90 per entry; entries follow.
1. CCNC(=O)C(C)(C)n1c(=O)c2c(C)c(-n3nccn3)sc2n(C[C@H](O)c2cc(F)ccc2OC)c1=O [Compound I-255]
2. Cc1c(-n2nccn2)sc2c1c(=O)n(C(C)(C)C(=O)NC(C)C)c(=O)n2CCc1cc(F)ccc1CCCC#N [Compound I-278]
3. CC(=O)Oc1ccccc1[C@H](Cn1c(=O)n(C(C)(C)C(=O)NC(C)C)c(=O)c2c(C)c(-n3nccn3)sc21)OCCC#N [Compound I-272]
4. C=CCN(C)C(=O)C(C)(C)n1c(=O)c2c(C)c(-n3nccn3)sc2n(C[C@H](OC2CCOCC2)c2cc(F)ccc2OC)c1=O [Compound I-71]
5. COc1ccccc1[C@@H](O)Cn1c(=O)n(C(C)(C)C(N)=O)c(=O)c2c(C)c(-n3nccn3)sc21 [Compound I-196]
6. COc1ccc(F)cc1[C@H](Cn1c(=O)n(CC(=O)N2CCCC2)c(=O)c2c(C)c(-n3nccn3)sc21)OCCO [Compound I-81]
7. Cc1c(-n2nccn2)sc2c1c(=O)n(C(C)(C)C(=O)NC(C)C)c(=O)n2C[C@H](OCCC#N)c1ccccc1O [Compound I-271]

0.4
10
2
0.08
2
0.08
10

Record IC90 per entry; entries follow.
1. COc1ccc(F)cc1CCn1c(=O)n(C(C)(C)C(=O)NC(C)C)c(=O)c2c(C)c(-n3nccn3)sc21 [Compound I-266]
2. CCc1ccc(F)cc1[C@@H](Cn1c(=O)n(C(C)(C)C(=O)NC(C)C)c(=O)c2c(C)c(-n3nccn3)sc21)OC[C@@H](C)C#N [Compound I-247]

1. 2
2. 0.08
